species on record: Rattus norvegicus; test: Spasmolytic activity in Wistar rat ileum; format: functional
readout-kind: Emax (%)
A number alone suffices; assume %.

# annotated cases, reported Emax shown
> print(dat)
                   query.smiles  readout.kind  readout.number
1    Oc1ccccc1-c1nc2ccccc2[nH]1          Emax            42.4
2  CCOc1ccccc1-c1nc2ccccc2[nH]1          Emax              50
3   CCOc1ccccc1-c1nc2ccccc2n1CC          Emax              60

Need Emax of CN(C)c1ccc(-c2nc3ccccc3[nH]2)cc1 , thanks. 34.9

Entry COc1ccc(-c2nc3ccccc3[nH]2)c(OC)c1OC has what Emax? 65

What value of measured Emax is listed for Cc1ccc(COc2ccccc2-c2nc3ccccc3[nH]2)cc1 ? 47.7

Attribution: ChEMBL document CHEMBL1146025
